pIC50, TYK2 (Homo sapiens (Human)), per-entry values.
pIC50: −log10 of the molar value.

Use the examples below as a reference point.
- Molecule: "COc1cnc(Nc2cc(C)ns2)nc1N1CC(CC#N)(N2CCCCC2)C1"
  pIC50: "> 7.30"
- Molecule: "Cc1cc(Nc2ncc(C)c(N3CC(N4CCN5C[C@H](F)C[C@H]5C4)C3)n2)sn1 [E110a]"
  pIC50: "> 8.00"
- Molecule: "Cc1cc(Nc2ncc(C)c(N3CC(C)(CNC(=O)C4CNCC4(F)F)C3)n2)sn1 (centres unmarked)"
  pIC50: "> 7.30"

Problem: Could you share which pIC50 value was measured for COCCN1CCN(C2(CC#N)CN(c3nc(Nc4cnn(CCOC)c4)ncc3C)C2)CC1 ?
Result: > 6.70

Problem: Could you share which pIC50 value was measured for Cc1cnc(Nc2cnn(C)c2)nc1N1CC(CCO)(N2CCN3C[C@H](F)C[C@H]3C2)C1 [E167a] ?
Result: > 7.30

###

IC50, TYK2 (Homo sapiens (Human)), per-entry values.

- Molecule: "Cc1cc(Nc2ncc(C)c(N3CC(CCO)(N4CCCCC4)C3)n2)sn1 [E66a]"
  IC50: "< 0.01 µM"

Proceed to the following item.
Problem: Could you share which IC50 value was measured for Cn1cc(Nc2ncc(Cl)c(N3CC(CC#N)(N4CCN5C[C@H](F)C[C@H]5C4)C3)n2)cn1 [E163a] ?
Result: < 0.01 µM

###

IC50, TYK2 (Homo sapiens (Human)), per-entry values.

Problem: GET /values?readout=IC50&system=TYK2 (Homo sapiens (Human))&item= Cc1cc(Nc2ncc(C)c(N3CC(CC#N)(N4CC5CCC(C4)N5C)C3)n2)sn1 [E30]
Result: < 10 nM

Problem: GET /values?readout=IC50&system=TYK2 (Homo sapiens (Human))&item= Cc1cc(Nc2ncc(C)c(N3CC(CC#N)(CN4CCN5C[C@H](F)C[C@H]5C4)C3)n2)sn1 [E117-Y]
Result: < 50 nM

Problem: GET /values?readout=IC50&system=TYK2 (Homo sapiens (Human))&item= CCC1(N2CCN3C[C@H](F)C[C@H]3C2)CN(c2nc(Nc3cnn(C)c3)ncc2C)C1 [E170a]
Result: < 100 nM

Problem: GET /values?readout=IC50&system=TYK2 (Homo sapiens (Human))&item= Cc1cc(Nc2ncc(C)c(N3CC(CC#N)(N4CCN5C[C@@H](F)C[C@H]5C4)C3)n2)sn1 [E52B]
Result: < 10 nM

Problem: GET /values?readout=IC50&system=TYK2 (Homo sapiens (Human))&item= Cc1cc(Nc2ncc(C)c(N3CC(CC#N)(N4CCCC(C)C4)C3)n2)sn1 (centres unmarked) [E15]
Result: < 10 nM

Problem: GET /values?readout=IC50&system=TYK2 (Homo sapiens (Human))&item= Cc1cc(Nc2ncc(C)c(N3CC(CC#N)(N4CC5(C4)CC(F)(F)CO5)C3)n2)sn1 [E112a]
Result: < 50 nM

Problem: GET /values?readout=IC50&system=TYK2 (Homo sapiens (Human))&item= CCN1CCN(C2(CC#N)CN(c3nc(Nc4cc(C)ns4)ncc3C)C2)CC1 [E52]
Result: < 10 nM

Problem: GET /values?readout=IC50&system=TYK2 (Homo sapiens (Human))&item= Cc1cnc(Nc2cnn(C)c2)nc1N1CC2(C1)CC2(F)F [E82]
Result: < 20 nM

Problem: GET /values?readout=IC50&system=TYK2 (Homo sapiens (Human))&item= Cc1cc(Nc2ncc(C)c(N3CC(C4CC4)(N4CCCCC4)C3)n2)sn1 [E107a]
Result: < 50 nM

Problem: GET /values?readout=IC50&system=TYK2 (Homo sapiens (Human))&item= Cc1cc(Nc2ncc(C)c(N3CC(CC#N)(N4CCN(C)[C@H](C)C4)C3)n2)sn1 [E52C]
Result: < 10 nM

Problem: GET /values?readout=IC50&system=TYK2 (Homo sapiens (Human))&item= CO[C@@H]1C[C@H]2CN(C3(CC#N)CN(c4nc(Nc5cc(C)ns5)ncc4C)C3)CCN2C1 [E72a]
Result: < 10 nM

Problem: GET /values?readout=IC50&system=TYK2 (Homo sapiens (Human))&item= COC(=O)CC1(N2CCN3CCC[C@H]3C2)CN(c2nc(Nc3cc(C)ns3)ncc2C)C1 [E100a]
Result: < 10 nM

Problem: GET /values?readout=IC50&system=TYK2 (Homo sapiens (Human))&item= Cc1cnc(Nc2cnn(C)c2)nc1N1CC(N2CCN3C[C@H](F)C[C@H]3C2)C1 [E169a]
Result: < 120 nM

Problem: GET /values?readout=IC50&system=TYK2 (Homo sapiens (Human))&item= Cc1cnc(Nc2cnn(C)c2)nc1N1CC(CC#N)(N2CCN3CCCC[C@H]3C2)C1 [E171a]
Result: < 10 nM

Problem: GET /values?readout=IC50&system=TYK2 (Homo sapiens (Human))&item= Cc1cc(Nc2ncc(C)c(N3CC(CC#N)(N4CCN(C5CCC5)CC4)C3)n2)sn1 [E64a]
Result: < 10 nM

Problem: GET /values?readout=IC50&system=TYK2 (Homo sapiens (Human))&item= Cc1cnc(Nc2cnn(C)c2)nc1N1CC(CC#N)(N2CC3(C2)CC(F)(F)CO3)C1 [E172a]
Result: < 100 nM

Problem: GET /values?readout=IC50&system=TYK2 (Homo sapiens (Human))&item= Cc1cnc(Nc2cnn(C)c2)nc1C1CC(C)(NC(=O)[C@@H]2CC2(F)F)C1 (some centres unmarked) [E279]
Result: < 10 nM

Problem: GET /values?readout=IC50&system=TYK2 (Homo sapiens (Human))&item= Cc1cc(Nc2ncc(C)c(N3CC(CC#N)(NC(=O)Cc4cccnc4)C3)n2)sn1 [E281]
Result: < 50 nM

Problem: GET /values?readout=IC50&system=TYK2 (Homo sapiens (Human))&item= Cc1cnc(Nc2ccc3c(c2)CN(C)C3)nc1N1CC(CC#N)(N2CCC3(CC2)CC3(F)F)C1 [E113]
Result: < 10 nM

Problem: GET /values?readout=IC50&system=TYK2 (Homo sapiens (Human))&item= Cc1cc(Nc2ncc(C)c(N3CC(CC#N)(N(C)C4CN(C)C4)C3)n2)sn1 [E37]
Result: < 50 nM

Problem: GET /values?readout=IC50&system=TYK2 (Homo sapiens (Human))&item= COc1cnc(Nc2cc(C)ns2)nc1N1CC(CC#N)(N2CCN3C[C@H](F)C[C@H]3C2)C1 [E101a]
Result: < 10 nM

###

IC50, UniProt P23458, per-entry values.
Sequence (P23458 whole entry, species assumed): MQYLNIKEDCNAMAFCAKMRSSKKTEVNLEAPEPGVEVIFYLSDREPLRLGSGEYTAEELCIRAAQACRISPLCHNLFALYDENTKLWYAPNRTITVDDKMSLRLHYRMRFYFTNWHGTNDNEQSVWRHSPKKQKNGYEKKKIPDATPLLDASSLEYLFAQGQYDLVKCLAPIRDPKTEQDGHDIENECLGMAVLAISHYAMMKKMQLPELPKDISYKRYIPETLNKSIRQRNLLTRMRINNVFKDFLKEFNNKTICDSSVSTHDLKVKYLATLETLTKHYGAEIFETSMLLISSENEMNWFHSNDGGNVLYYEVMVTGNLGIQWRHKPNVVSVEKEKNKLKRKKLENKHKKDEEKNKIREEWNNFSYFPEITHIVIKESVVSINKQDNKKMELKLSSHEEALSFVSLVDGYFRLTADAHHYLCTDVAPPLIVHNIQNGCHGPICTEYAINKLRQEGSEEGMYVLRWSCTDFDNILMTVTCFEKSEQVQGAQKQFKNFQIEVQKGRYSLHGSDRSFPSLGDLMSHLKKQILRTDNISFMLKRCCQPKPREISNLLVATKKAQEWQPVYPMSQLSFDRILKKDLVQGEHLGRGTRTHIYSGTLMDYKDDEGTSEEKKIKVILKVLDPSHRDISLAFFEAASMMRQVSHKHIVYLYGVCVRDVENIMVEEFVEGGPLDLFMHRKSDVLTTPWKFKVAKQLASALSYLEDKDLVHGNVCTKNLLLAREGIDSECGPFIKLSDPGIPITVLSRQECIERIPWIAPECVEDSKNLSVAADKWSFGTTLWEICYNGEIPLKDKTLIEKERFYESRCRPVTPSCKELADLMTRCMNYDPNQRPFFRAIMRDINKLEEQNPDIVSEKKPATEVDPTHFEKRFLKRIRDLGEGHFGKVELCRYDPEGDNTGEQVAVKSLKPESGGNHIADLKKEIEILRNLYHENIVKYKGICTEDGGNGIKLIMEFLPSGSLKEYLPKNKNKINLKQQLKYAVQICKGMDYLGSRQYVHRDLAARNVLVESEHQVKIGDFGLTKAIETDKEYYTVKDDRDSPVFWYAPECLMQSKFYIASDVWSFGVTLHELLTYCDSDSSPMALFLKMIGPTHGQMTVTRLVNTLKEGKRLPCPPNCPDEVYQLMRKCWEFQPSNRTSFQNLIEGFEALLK

Problem: Could you share which IC50 value was measured for Cc1cc(Nc2ncc(C)c(N3CC(CC#N)(N4CC5CC(C4)N5C)C3)n2)sn1 [E52F] ?
Result: < 100 nM

###

pIC50, TYK2 (Homo sapiens (Human)), per-entry values.
pIC50: −log10 of the molar value.

Use the examples below as a reference point.
- Compound: "Cc1cc(Nc2ncc(C)c(N3CC(CC#N)(N4C[C@@H](C)N(C)[C@@H](C)C4)C3)n2)sn1"
  Target Or System: "TYK2 (Homo sapiens (Human))"
  pIC50: "> 8.00"
- Compound: "Cc1cc(Nc2ncc(C)c(N3CC(CC#N)(N4CC5OCCN(C)C5C4)C3)n2)sn1 (stereo not drawn) [E98a]"
  Target Or System: "TYK2 (Homo sapiens (Human))"
  pIC50: "> 8.00"

Problem: GET /values?readout=pIC50&system=TYK2 (Homo sapiens (Human))&item= Cc1cc(Nc2ncc(C)c(N3CC(CC#N)(NC(=O)c4ccccn4)C3)n2)sn1
Result: > 7.70

Problem: GET /values?readout=pIC50&system=TYK2 (Homo sapiens (Human))&item= CCS(=O)(=O)C1CN(C2(CC#N)CN(c3nc(Nc4cc(C)ns4)ncc3C)C2)C1 [E96a]
Result: > 7.30

Problem: GET /values?readout=pIC50&system=TYK2 (Homo sapiens (Human))&item= Cc1cc(Nc2nccc(N3CC(CC#N)(N4CCCCC4)C3)n2)sn1
Result: > 7.70

Problem: GET /values?readout=pIC50&system=TYK2 (Homo sapiens (Human))&item= Cc1cnc(Nc2cnn(C)c2)nc1N1CC(CC#N)(N2CCN3CCC[C@H]3C2)C1 [E162a]
Result: > 7.30

Problem: GET /values?readout=pIC50&system=TYK2 (Homo sapiens (Human))&item= Cc1cc(Nc2ncc(C)c(N3CC(CC#N)(N4CCn5cccc5C4)C3)n2)sn1 [E90a]
Result: > 8.00

Problem: GET /values?readout=pIC50&system=TYK2 (Homo sapiens (Human))&item= Cc1cnc(Nc2ccc3c(c2)CN(C)C3)nc1N1CC(CC#N)(N2CCC(F)(F)CC2)C1
Result: > 8.00

Problem: GET /values?readout=pIC50&system=TYK2 (Homo sapiens (Human))&item= Cc1cnc(Nc2cnn(C)c2)nc1N1CC(CC#N)(N2CCn3cccc3C2)C1 [E164a]
Result: > 8.00

Problem: GET /values?readout=pIC50&system=TYK2 (Homo sapiens (Human))&item= Cc1cc(Nc2ncc(C)c(N3CC(CC#N)(N4CCn5c(cnc5C)C4)C3)n2)sn1 [E91a]
Result: > 8.00

Problem: GET /values?readout=pIC50&system=TYK2 (Homo sapiens (Human))&item= Cc1cc(Nc2ncc(C)c(N3CC(CC4CC4)C3)n2)sn1 [E109a]
Result: > 8.00

Problem: GET /values?readout=pIC50&system=TYK2 (Homo sapiens (Human))&item= Cc1cnc(Nc2cnn(C)c2)nc1N1CC(CC#N)(N[C@H]2CC[C@H](NC(=O)OC(C)(C)C)C2)C1
Result: < 5.70
